Molecular target: CYP2C8.3 (Homo sapiens, UniProt P10632, K399R/R139K)
Sequence (P10632 1-490 R139K/K399R): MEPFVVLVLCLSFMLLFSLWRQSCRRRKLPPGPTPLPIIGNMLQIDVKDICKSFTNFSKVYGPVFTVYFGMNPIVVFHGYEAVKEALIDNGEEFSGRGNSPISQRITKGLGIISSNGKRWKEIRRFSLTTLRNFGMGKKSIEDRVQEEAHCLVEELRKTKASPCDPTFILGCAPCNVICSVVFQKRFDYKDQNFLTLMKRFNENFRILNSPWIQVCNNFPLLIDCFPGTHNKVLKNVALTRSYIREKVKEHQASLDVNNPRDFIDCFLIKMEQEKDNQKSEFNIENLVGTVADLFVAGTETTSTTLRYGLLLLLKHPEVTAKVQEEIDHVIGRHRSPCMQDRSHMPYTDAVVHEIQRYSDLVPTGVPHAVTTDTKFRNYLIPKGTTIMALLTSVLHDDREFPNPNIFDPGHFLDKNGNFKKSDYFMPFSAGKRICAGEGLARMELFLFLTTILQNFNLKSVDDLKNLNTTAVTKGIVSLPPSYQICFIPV
OBSERVABLE: Ki (µM)

1 = CN(CCOc1ccc(CC2SC(=O)NC2=O)cc1)c1ccccn1 (centres unmarked)
2 = CC(=O)O[C@H]1C(=O)[C@@]2(C)[C@H]([C@H](OC(=O)c3ccccc3)[C@]3(O)C[C@H](OC(=O)[C@H](O)[C@@H](NC(=O)c4ccccc4)c4ccccc4)C(C)=C1C3(C)C)[C@]1(OC(C)=O)CO[C@@H]1C[C@@H]2O
INPUT: Form field 'greater Ki' accepts 1 or 2 ; which applies? Answer format: the label of the selected item.
OUTPUT: 1
(1: 150 µM, 2: 103 µM)
